Just for reference, paper PMC12207370 is where these values come from.

# assay_target: biotinylated CD59 (Homo sapiens, UniProt P13987)
# Construct: Recombinant soluble human CD59 with an additional C-terminal cysteine residue
# Sequence (P13987 26-102 limits assumed): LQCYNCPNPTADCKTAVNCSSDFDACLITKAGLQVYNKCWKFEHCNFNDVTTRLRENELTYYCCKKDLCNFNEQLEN
# method_notes: mRNA-display cyclic peptide screen against CD59-biotin, NGS abundance after 6th selection round
# measurement_context: NGS sample Seq I, sheet R6 (6th selection round)
Response field label takes TRUE when Counts (raw counts for peptide sequence), Seq I is strictly below 60 and FALSE in all other cases.

{"biopolymer_sequence": "HAFGNRSFTRG", "label_value": "FALSE"}
{"biopolymer_sequence": "IARGDRNHQFF", "label_value": "TRUE"}
{"biopolymer_sequence": "CFLTRASQLSGT", "label_value": "TRUE"}
{"biopolymer_sequence": "CFSPRVTEHST", "label_value": "FALSE"}
{"biopolymer_sequence": "CFLKRDRSASI", "label_value": "TRUE"}
{"biopolymer_sequence": "CFAARLSNGDT", "label_value": "FALSE"}
{"biopolymer_sequence": "FIRGDSTSVLF", "label_value": "TRUE"}
{"biopolymer_sequence": "FIRGNSTSVLFAAAAAAARTGGG", "label_value": "TRUE"}

###

# assay_target: biotinylated CD59 (Homo sapiens)
# Construct: Recombinant soluble human CD59 with an additional C-terminal cysteine residue
# Sequence (P13987 26-102 limits assumed): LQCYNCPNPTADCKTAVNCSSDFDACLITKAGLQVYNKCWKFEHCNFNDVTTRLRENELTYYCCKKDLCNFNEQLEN
# method_notes: mRNA-display cyclic peptide screen against CD59-biotin, NGS abundance after 6th selection round
# measurement_context: counts normalised by total counts of sample Seq II; percentage of the pool, sheet R6
Response field label takes 1 when Percentage Seq II is strictly below 0.2% and -1 in all other cases.

{"biopolymer_sequence": "CFSHRSNSDGI", "label_value": 1}
{"biopolymer_sequence": "YVFWSRTHTYG", "label_value": 1}
{"biopolymer_sequence": "VKYGNSNFVRE", "label_value": 1}
{"biopolymer_sequence": "LWGTHSYIYYRP", "label_value": -1}
{"biopolymer_sequence": "CFTLRLSQTSV", "label_value": 1}
{"biopolymer_sequence": "CFARRLSASSGT", "label_value": 1}
{"biopolymer_sequence": "CFAGRLTIDAV", "label_value": -1}

###

Readings of Counts (raw counts for peptide sequence), Seq II for the listed sequences
# assay_target: biotinylated CD59 (Homo sapiens, UniProt P13987)
# Construct: Recombinant soluble human CD59 with an additional C-terminal cysteine residue
# Sequence (P13987 26-102 limits assumed): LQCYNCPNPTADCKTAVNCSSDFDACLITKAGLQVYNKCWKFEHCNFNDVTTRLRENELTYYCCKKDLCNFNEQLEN
# method_notes: mRNA-display cyclic peptide screen against CD59-biotin, NGS abundance after 6th selection round
# measurement_context: NGS sample Seq II, sheet R6 (6th selection round)
experimental_endpoint: Counts (raw counts for peptide sequence), Seq II

{"biopolymer_sequence": "DSRNQCHTWKT", "numeric_value": 6}
{"biopolymer_sequence": "CFTLRVLDVSAV", "numeric_value": 5}
{"biopolymer_sequence": "CYSLRLGPETV", "numeric_value": 6}
{"biopolymer_sequence": "LAWGNRQIQYY", "numeric_value": 6}
{"biopolymer_sequence": "HCWVRGSRNHT", "numeric_value": 5}
